Overview of reported polymerase ribozyme fitness (log ratio) across a group of variants:
B1: TPR t1 (parent)
chain: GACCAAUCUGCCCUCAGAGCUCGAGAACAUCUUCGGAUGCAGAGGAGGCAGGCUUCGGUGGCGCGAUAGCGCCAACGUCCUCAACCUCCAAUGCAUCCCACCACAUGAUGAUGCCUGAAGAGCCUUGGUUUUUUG

- Variants of: B1
- assay-name: polymerase ribozyme fitness, log enrichment relative to wild type (log ratio); higher = more active; in vitro selection for triplet polymerase activity
Just the number, please.

INSERT INTO measurements (mutation, assay_metric, recorded_number) VALUES
  ('U7G C56A G57A G93U', 'polymerase ribozyme fitness (log ratio)', -1.03);

In plain terms, A16G C70A A95C has a documented polymerase ribozyme fitness (log ratio) of -4.17

In plain terms, C15G C98U A111G has a documented polymerase ribozyme fitness (log ratio) of -5.41

In plain terms, U7A C13G U32C U38G has a documented polymerase ribozyme fitness (log ratio) of -1.31

In plain terms, G69A G117C has a documented polymerase ribozyme fitness (log ratio) of -5.44

In plain terms, A6G G71C A118U has a documented polymerase ribozyme fitness (log ratio) of -0.254

In plain terms, G63A G69U C79U has a documented polymerase ribozyme fitness (log ratio) of -0.72

In plain terms, C8A C12G U14C G77C C101A has a documented polymerase ribozyme fitness (log ratio) of -1.39

In plain terms, C62G C79U has a documented polymerase ribozyme fitness (log ratio) of -1.14

In plain terms, G60A U92A C104U U133A has a documented polymerase ribozyme fitness (log ratio) of -2.74
